System: HC-1;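 note: growth inhibition of HC-1 cells measured by a cell viability assay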
Assay: cells
Type: functional, cell-based, Homo sapiens
Conditions: Homo sapiens, HC-1
Description: SANGER: Inhibition of human HC-1 cell growth in a cell viability assay.
Listed molecules paired with reported IC50

Illustrative cases are given below, each with its answer.
smiles-entry	IC50
CN(NC(=O)CC(=O)NN(C)C(=S)c1ccccc1)C(=S)c1ccccc1	> 200 nM
Cc1ccc(C(=O)Nc2ccc(CN3CCN(C)CC3)c(C(F)(F)F)c2)cc1C#Cc1cnc2cccnn12	> 512 nM

input: Consider the molecule `COc1cc(N2CCC(N3CCN(C)CC3)CC2)ccc1Nc1ncc(Cl)c(Nc2ccccc2S(=O)(=O)C(C)C)n1` . State its measured IC50.
output: > 2000 nM

input: Output measured IC50 for this item: `C/C(=C\c1csc(C)n1)[C@@H]1C[C@@H]2O[C@]2(C)CCC[C@H](C)[C@H](O)[C@@H](C)C(=O)C(C)(C)[C@@H](O)CC(=O)O1`
output: 3.98 nM

* * *

Tested on: SW 954;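 note: growth inhibition of SW954 human cancer cells, read out as cell viability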
Test: cells
Format: functional, cell-based, Homo sapiens
Conditions: Homo sapiens, SW 954
Description: SANGER: Inhibition of human SW954 cell growth in a cell viability assay.
pIC50: −log10 of the molar value. Where a SMILES comes first, the peptide text is derived from it. The star is where a group is joined. Cbz = O=C(OCc1ccccc1)*
property: pIC50

compound	pIC50
C=CC(=O)N1CCCC(Nc2nc(Nc3ccc(N(C)C(=O)CC)cc3)nc3[nH]cnc23)C1 (stereo unspecified)	5.59

input: Consider the compound Cc1ccc(C(=O)Nc2ccc(CN3CCN(C)CC3)c(C(F)(F)F)c2)cc1C#Cc1cnc2cccnn12 [PONATINIB] and give its recorded pIC50.
output: < 6.29

input: Write down pIC50 measured for item CCCCCCCCCCCC1=C(O)C(=O)C=C(O)C1=O [EMBELIN]
output: 4.51

input: Give the measured pIC50 for CC(C)C[C@@H](C=O)NC(=O)[C@H](CC(C)C)NC(=O)[C@H](CC(C)C)NC(=O)OCc1ccccc1 [MG-132] (Cbz-Leu-Leu-Leu-aldehyde)
output: < 6.00

input: Fill in pIC50 for record `COC(=O)[C@H](CCSC)NC(=O)c1ccc(NC[C@@H](N)CS)cc1-c1ccccc1`
output: < 5.99

input: Note pIC50 for the compound shown: `NC(=O)c1cccc(-c2cc(Nc3ccc(OC(F)(F)F)cc3)ncn2)c1`
output: < 5.89

* * *

Test system: SBC-1
Assay: cells
Format: functional, cell-based, Homo sapiens
Conditions: Homo sapiens, SBC-1
Description: SANGER: Inhibition of human SBC-1 cell growth in a cell viability assay.
property: IC50 (nM)
Please give a number only; it is taken to be in nM.

Solved cases (3 shown):
smiles-entry	recorded-measurement
CC(C)C[C@H](NC(=O)[C@H](Cc1ccccc1)NC(=O)c1cnccn1)B(O)O	5.01
NC1(c2ccc(-c3nc4ccn5c(=O)[nH]nc5c4cc3-c3ccccc3)cc2)CCC1	440
Nc1ccccc1NC(=O)c1ccc(CNC(=O)OCc2cccnc2)cc1	1430

Okay, next one:
input: Please tell me the measured IC50 for `CN(NC(=O)CC(=O)NN(C)C(=S)c1ccccc1)C(=S)c1ccccc1` ; system: SBC-1.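 Note: cell viability assay measuring growth inhibition of the SBC-1 cell line, IC50 being the concentration that halves growth.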
output: 35.1

* * *

System: COLO-679
Experiment: cells
Assay type: functional, cell-based
Conditions: Homo sapiens
Description: SANGER: Inhibition of human COLO-679 cell growth in a cell viability assay.
property: IC50 (µM)
# number only, unit µM dropped from output

smiles-entry	recorded-measurement
CCCCCCCCCCCC1=C(O)C(=O)C=C(O)C1=O	4.2
OC[C@H](Cc1ccccc1)Nc1nc(Oc2ccc3c(c2)CCC3)nc2c1ncn2Cc1ccc(-c2ccccc2)cc1	2.66
CN(C)CCOc1ccc(-c2nc(-c3ccncc3)c(-c3ccc4c(c3)CC/C4=N\O)[nH]2)cc1	0.386

Here is the next item to consider.
input: Given the compound `CN(NC(=O)CC(=O)NN(C)C(=S)c1ccccc1)C(=S)c1ccccc1` , write its reported IC50.
output: 0.0141
